B1: Hairpin Ribozyme (parent)
chain: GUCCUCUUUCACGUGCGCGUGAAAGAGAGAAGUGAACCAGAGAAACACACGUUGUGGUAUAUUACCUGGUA

# Variants of: B1
# PROTOCOL_TEXT: self-cleavage, relative activity (ratio to wild type); higher = more cleavage; co-transcriptional
EXPERIMENTAL_ENDPOINT: self-cleavage
Please give the numeric answer without any surrounding text.

// solved cases for self-cleavage follow
> print(dat)
                              sequence.data  measurement
1  GUCCUCUUUCACGUGCACGUGAAAGAGAGAAGUGAACCAGAGAAAGACACGUUGUGGUAUAUUACCUGGUA [G17A C46G]        0.211
2  GCCCUCUUUCACGUGCGCGUGAAAGAGAGAAGUGAACCAGAGAAACACACGUUGUGGUAUAUUACCAGGUA [U2C U67A]       0.0712
3  GUACUCUAUCACGUGCGCGUGAAAGAGAGAAGUGAACCAGAGAAACACACGUUGUGGUAUAUUACCUGGUA [C3A U8A]        0.547
4  GUCCUCUUUCACGUGCGCGUGAAAGAGAGAAGUGAACCUGAGAAACACACGUUGUAGUAUAUUACCUGGUA [A39U G56A]        0.114
5  GUCCUCUUUCACGUGCGCGUGAAACAGAGAAGUGAACCAGAGAAACACACGUUGUGGUAUAUUCCCUGGUA [G25C A64C]       0.0865

Consider the variant GUCCUCUUUCACGUGCGCGUGAAAGAGAGAAGUUAACCAGAGAAACACACGUUGUGGGAUAUUACCUGGUA [G34U U58G] . State its measured self-cleavage. 1.25

Consider the variant GUCCUCUUCCACGUGCGCGUGAAAGAGAGAAGUGAACCAGAGAAACACACGUUUUGGUAUAUUACCUGGUA [U9C G54U] . State its measured self-cleavage. 0.539

Consider the variant GUCCUCUUUCACCUGCGCGUGAAAGAGAGAAGUGAACCAGAGAAAUACACGUUGUGGUAUAUUACCUGGUA [G13C C46U] . State its measured self-cleavage. 0.218
